method: P. aeruginosa biofilm formation inhibitors, primary screen, PAO1 strain, BacTiter-Glo luminescence, LB-PBS (AID 1144)
condition: 12 h, higher = more signal
The source made the active and inactive calls. The rule behind the calls is not given here.
metric.name: z-score

Per the records, this molecule ( NC(=O)[C@@]1(CCS(=O)(=O)c2ccccc2)COC(c2ccc(OCCCO)cc2)=N1 ) has z-score equal to 1.59 (inactive)

Per the records, this molecule ( C=CCN1C(=O)[C@]2(O[C@H](CCn3cc([C@H](O)c4ccccc4)nn3)[C@@H]([Si](C)(C)c3ccc(OC)cc3)[C@@H]2C)c2cc(N3C(=O)c4cccc5cccc3c45)ccc21 ) has z-score equal to -0.774 (inactive)

Per the records, this molecule ( CCCCN1CC=CC23O[C@@H]4C=CCOC(=O)[C@@H]4[C@H]2C(=O)N(C(CO)C(C)C)[C@@H]3C1=O (some centres undefined) ) has z-score equal to 0.946 (inactive)

Per the records, this molecule ( NCCCC[C@@H]1NC(=O)[C@H]2C[C@@H](C(=O)NCc3ccc(F)cc3)[C@@H](c3cccc(OCCO)c3)N2C1=O ) has z-score equal to -0.862 (inactive)

Per the records, this molecule ( COc1ccccc1CN1C(=O)c2ccccc2[C@](Cc2ccccc2I)(C(=O)NCCCN(C)C)[C@@H]1c1ccc(CO)cc1 ) has z-score equal to 0.777 (inactive)

Per the records, this molecule ( N[C@@H](Cc1ccccc1)Cn1cc(C2(O)CCCCC2)nn1 ) has z-score equal to 0.683 (inactive)

Per the records, this molecule ( Cc1ccc(S[C@]2(C(=O)NCCN3CCOCC3)CC(=O)N(C3CCCCC3)[C@@H]2c2ccc(CO)cc2I)cc1 ) has z-score equal to -0.435 (inactive)

Per the records, this molecule ( C=CC[C@@]1(C(=O)N(C)C)N=C(c2ccc(OCCCO)cc2)O[C@@H]1c1ccccc1 ) has z-score equal to 0.442 (inactive)

Next:
Per the records, this molecule ( CC(C)C[C@@H]1NC(=O)[C@@H]2C[C@H](C(=O)O)[C@H](c3ccc(O)cc3)N2C1=O ) has z-score equal to -0.934 (inactive)

Per the records, this molecule ( CC1(C)OC[C@@]23C=C(Br)[C@@H](C[C@H]12)[C@@]1(CO1)C3=O ) has z-score equal to 0.844 (inactive)

Per the records, this molecule ( CC(C)C[C@H]1NC(=O)[C@@H](C)NC(=O)[C@@]23C(=O)N[C@@H](Cc4ccccc4)C2[C@H](C)[C@@]2(C)O[C@H]2C3/C=C/C/C=C\CNC1=O (some centres undefined) ) has z-score equal to 0.541 (inactive)

Per the records, this molecule ( CN(C)CCCC[C@@H]1NC(=O)[C@@H]2C[C@H](C(=O)NCCCCCCNC(=O)CS)[C@H](c3cccc(OCCO)c3)N2C1=O ) has z-score equal to -0.332 (inactive)

Per the records, this molecule ( C=CCNC(=O)[C@H]1[C@@H]2C(=O)O[C@@H](c3ccccc3)[C@@H](c3ccccc3)N2[C@@H](c2ccc(O)cc2)[C@]12C(=O)Nc1ccc(C#CC3=CCCCC3)cc12 ) has z-score equal to -0.0901 (inactive)

Per the records, this molecule ( COCCOC(=O)N1C(=O)[C@@]2(c3cc(C#CC4(O)CCCCCC4)ccc31)[C@H](c1ccccc1OCCO)N1[C@H](c3ccccc3)[C@H](c3ccccc3)OC(=O)[C@H]1[C@@H]2C(=O)N1CCCCCCC1 ) has z-score equal to -0.977 (inactive)

Per the records, this molecule ( C[C@]1(C(=O)NCC(F)(F)F)c2ccccc2C(=O)N(Cc2ccc(OC(F)(F)F)cc2)[C@H]1c1ccc(CO)cc1 ) has z-score equal to 0.382 (inactive)

Per the records, this molecule ( CCCC[C@H]1OB(O)C[C@H]2C1=C(C)C[C@H]1C(=O)C=CC(=O)[C@H]12 ) has z-score equal to 0.244 (inactive)

Per the records, this molecule ( COc1ccc(C#Cc2ccc3c(c2)[C@]2(C(=O)N3)[C@H](C(=O)Nc3nc4ccccc4s3)[C@H]3C(=O)O[C@H](c4ccccc4)[C@H](c4ccccc4)N3[C@@H]2c2ccc(OCCO)cc2)cc1 ) has z-score equal to -0.953 (inactive)

Per the records, this molecule ( COC(=O)[C@@]1(Cc2ccccc2CN=[N+]=[N-])COC(c2ccc(OCCCO)cc2)=N1 ) has z-score equal to -0.0995 (inactive)
